biological target: Dual specificity mitogen-activated protein kinase kinase 1 (Homo sapiens, UniProt Q02750); assay: Inhibition of recombinant MEK1 (unknown origin) by cascade reaction assay
Sequence (Q02750 whole entry): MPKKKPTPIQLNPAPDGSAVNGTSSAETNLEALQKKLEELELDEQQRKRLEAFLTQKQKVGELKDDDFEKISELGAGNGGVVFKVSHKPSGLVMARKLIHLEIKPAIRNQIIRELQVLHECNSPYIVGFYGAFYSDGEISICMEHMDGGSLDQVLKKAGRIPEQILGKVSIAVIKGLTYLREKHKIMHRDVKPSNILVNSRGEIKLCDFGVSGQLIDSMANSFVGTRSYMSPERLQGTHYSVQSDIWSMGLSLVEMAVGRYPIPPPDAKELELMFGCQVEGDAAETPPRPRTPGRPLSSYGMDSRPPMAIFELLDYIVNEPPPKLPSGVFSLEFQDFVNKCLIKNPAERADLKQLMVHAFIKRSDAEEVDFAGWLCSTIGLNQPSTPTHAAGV
parameterMeasured: IC50 (µM)
# output: bare number, implied unit µM

// worked examples, IC50 included
O=C1/C(=C/c2ccccn2)CNC/C1=C\c1ccccn1: 1.1
CN1C/C(=C\c2ccccn2)C(=O)/C(=C/c2ccccn2)C1: 9

Switching to the query record.
[ask] API: value(readout= IC50, system= Dual specificity mitogen-activated protein kinase kinase 1 (Homo sapiens, UniProt Q02750), query= O=C1/C(=C/c2ccccn2)CSC/C1=C\c1ccccn1 )
[reply] 30

====

molecular target: MAP kinase-activated protein kinase 2 (Homo sapiens, UniProt P49137); assay: Inhibition of recombinant MAPKAPK2 (unknown origin) by FRET-based Z'-LYTE assay
Sequence (P49137 whole entry): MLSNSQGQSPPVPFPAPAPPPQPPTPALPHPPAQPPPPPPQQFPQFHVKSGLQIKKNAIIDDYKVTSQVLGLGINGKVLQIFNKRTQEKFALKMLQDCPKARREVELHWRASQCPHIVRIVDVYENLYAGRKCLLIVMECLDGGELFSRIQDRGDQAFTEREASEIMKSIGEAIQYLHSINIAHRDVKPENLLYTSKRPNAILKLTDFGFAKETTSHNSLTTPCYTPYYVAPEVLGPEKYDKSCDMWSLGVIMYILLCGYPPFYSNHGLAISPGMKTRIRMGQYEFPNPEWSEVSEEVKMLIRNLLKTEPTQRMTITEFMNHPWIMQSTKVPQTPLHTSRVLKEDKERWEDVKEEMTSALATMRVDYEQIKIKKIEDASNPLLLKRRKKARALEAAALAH
We begin with a simple list: items and their reported pIC50.
// scale note: pIC50 = -log10(conc_M); give the bare number

O=C1/C(=C/c2ccccn2)CSC/C1=C\c1ccccn1: 4.80
CN1C/C(=C\c2ccccn2)C(=O)/C(=C/c2ccccn2)C1: 5.01

Switching to the query record.
[ask] Consider the compound shown here: O=C1/C(=C/c2ccccn2)CNC/C1=C\c1ccccn1 What is its recorded pIC50?
[reply] 5.17
